Measurement Description: in vivo
Condition: mouse, ip
A collection of molecules and their measured LD50

Which LD50 value is on record for COc1ccc(C(=O)N2CC(c3ccc(Cl)cc3)CC2=O)cc1 (centres unmarked) [compound 4] ?
> 2000 mg/kg

Requested field: LD50. Item: CCCC(CCC)C(=O)O [Ca-Valproate]
455 mg/kg

###

Measurement Description: in vivo
Condition: mouse, ip
Readout Name: LD50

Consider the following illustrative entries.
| Compound | Meas Value |
| --- | --- |
| CCCC(CCC)C(=O)N1CC(c2ccccc2)CC1=O (stereo not drawn) [compound 1] | 1630 mg/kg |
| O=C(COc1ccc(Cl)cc1)N1CC(c2ccc(Cl)cc2)CC1=O (stereo not drawn) [compound 5] | > 2000 mg/kg |
| NC(=O)CN1CCCC1=O [Piracetam] | > 2000 mg/kg |
| COc1ccc(C(=O)N2CC(c3ccccc3)CC2=O)cc1 (stereo not drawn) [compound 3] | > 2000 mg/kg |
| CCCC(CCC)C(=O)N1CC(c2ccc(Cl)cc2)CC1=O (stereo not drawn) [compound 2] | > 2000 mg/kg |

Next compound, please.
Recorded LD50 of CCOC(=O)C1C(=O)N(C(=O)c2ccc(OC)cc2)CC1c1ccccc1 (stereo not drawn) [compound 6] , please.
> 2000 mg/kg
